Target: calf thymus topoisomerase I (Bos taurus, UniProt F1MN93)
Construct: DNA topoisomerase I was purified from calf thymus gland as reported previously; from tissue; host or cells: calf thymus gland
Sequence (F1MN93 1-767): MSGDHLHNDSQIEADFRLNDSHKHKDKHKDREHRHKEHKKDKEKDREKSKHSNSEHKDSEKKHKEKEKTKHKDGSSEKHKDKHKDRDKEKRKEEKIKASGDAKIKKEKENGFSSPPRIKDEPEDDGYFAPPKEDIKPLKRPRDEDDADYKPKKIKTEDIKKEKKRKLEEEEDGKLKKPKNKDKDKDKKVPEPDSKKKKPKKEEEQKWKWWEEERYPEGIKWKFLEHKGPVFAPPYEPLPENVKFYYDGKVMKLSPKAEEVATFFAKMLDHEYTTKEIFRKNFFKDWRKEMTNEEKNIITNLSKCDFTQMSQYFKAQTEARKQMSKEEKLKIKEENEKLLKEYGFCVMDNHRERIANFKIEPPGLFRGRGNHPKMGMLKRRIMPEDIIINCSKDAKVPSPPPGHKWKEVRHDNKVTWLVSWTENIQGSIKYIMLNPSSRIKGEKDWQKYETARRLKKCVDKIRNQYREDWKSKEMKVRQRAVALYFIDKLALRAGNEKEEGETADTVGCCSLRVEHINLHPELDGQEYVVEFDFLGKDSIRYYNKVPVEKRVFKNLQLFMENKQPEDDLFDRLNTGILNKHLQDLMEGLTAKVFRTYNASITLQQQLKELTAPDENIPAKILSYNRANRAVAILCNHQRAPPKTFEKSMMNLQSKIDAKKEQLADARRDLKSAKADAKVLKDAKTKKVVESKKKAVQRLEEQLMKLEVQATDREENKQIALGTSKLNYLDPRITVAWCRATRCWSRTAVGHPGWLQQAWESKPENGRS
Test: Topoisomerase I-mediated DNA cleavage assay (calf thymus enzyme)
Type: biochemical
Details: concentration relative to Hoechst 33342 (arbitrarily 1) producing the same cleavage on plasmid DNA; calf thymus topoisomerase I
attribute_measured: Topo I-mediated DNA cleavage (REC, Relative Effective Concentration)
Reply with just the number.

Recorded Topo I-mediated DNA cleavage (REC, Relative Effective Concentration), per entry:
N#Cc1ccc2[nH]c(-c3ccc4[nH]cnc4c3)nc2c1; 1000
c1cncc(-c2ccc3[nH]c(-c4ccc5[nH]c(-c6ccc7[nH]cnc7c6)nc5c4)nc3c2)c1; 2

Lookup: Topo I-mediated DNA cleavage (REC, Relative Effective Concentration) for N#Cc1ccc2[nH]c(-c3ccc4[nH]c(-c5ccc6[nH]cnc6c5)nc4c3)nc2c1 ?
Found: 1

Lookup: Query c1ccc(-c2ccc3[nH]c(-c4ccc5[nH]c(-c6ccc7[nH]cnc7c6)nc5c4)nc3c2)cc1 next
Found: 2

* * *

molecular target: calf thymus topoisomerase I (Bos taurus, UniProt F1MN93); construct: DNA topoisomerase I was purified from calf thymus gland as reported previously; from tissue; host or cells: calf thymus gland; assay: Topoisomerase I-mediated DNA cleavage assay (calf thymus enzyme); assay type: biochemical; conditions: concentration relative to Hoechst 33342 (arbitrarily 1) producing the same cleavage on plasmid DNA; calf thymus topoisomerase I
attribute_measured: Topo I-mediated DNA cleavage (REC, Relative Effective Concentration)
Reply with just the number.

Lookup: Field: Topo I-mediated DNA cleavage (REC, Relative Effective Concentration) (calf thymus topoisomerase I (Bos taurus, UniProt F1MN93)). Entry: Brc1ccc2[nH]c(-c3ccc4[nH]c(-c5ccc6[nH]cnc6c5)nc4c3)nc2c1
Found: 1

Lookup: Query c1cc(-c2ccc3[nH]c(-c4ccc5[nH]c(-c6ccc7[nH]cnc7c6)nc5c4)nc3c2)ccn1 next
Found: 2

Lookup: Query c1ccc2[nH]c(-c3ccc4[nH]c(-c5ccc6[nH]cnc6c5)nc4c3)nc2c1 next
Found: 1.1

Lookup: Query CCCc1ccc2[nH]c(-c3ccc4[nH]c(-c5ccc6[nH]cnc6c5)nc4c3)nc2c1 next
Found: 100
